# MEASURED_TARGET: human recombinant prolyl endopeptidase (PREP) (Homo sapiens)
# Sequence (P48147 1-710): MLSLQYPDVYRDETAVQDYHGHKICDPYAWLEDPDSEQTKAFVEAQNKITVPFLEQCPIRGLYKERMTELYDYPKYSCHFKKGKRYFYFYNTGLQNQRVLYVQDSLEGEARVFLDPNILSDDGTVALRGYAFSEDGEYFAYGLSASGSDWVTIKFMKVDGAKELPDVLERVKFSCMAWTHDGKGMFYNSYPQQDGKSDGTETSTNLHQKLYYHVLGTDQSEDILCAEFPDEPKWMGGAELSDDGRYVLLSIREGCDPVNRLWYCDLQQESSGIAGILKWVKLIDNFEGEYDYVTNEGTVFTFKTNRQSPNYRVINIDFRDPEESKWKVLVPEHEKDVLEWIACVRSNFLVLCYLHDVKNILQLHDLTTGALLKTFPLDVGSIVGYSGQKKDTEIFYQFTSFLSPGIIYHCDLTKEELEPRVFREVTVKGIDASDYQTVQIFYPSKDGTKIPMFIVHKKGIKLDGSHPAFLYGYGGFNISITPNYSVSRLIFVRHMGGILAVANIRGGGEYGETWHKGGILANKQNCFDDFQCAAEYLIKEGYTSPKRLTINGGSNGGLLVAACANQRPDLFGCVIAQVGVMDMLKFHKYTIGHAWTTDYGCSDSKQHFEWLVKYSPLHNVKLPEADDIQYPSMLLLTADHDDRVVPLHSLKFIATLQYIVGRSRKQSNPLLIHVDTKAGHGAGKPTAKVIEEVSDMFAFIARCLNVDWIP
# EXPERIMENT_NOTES: PREP enzymatic activity assay (Z-Gly-Pro-pNA, photometric)
# MEASUREMENT_CONDITIONS: recombinant PREP, Z-Gly-Pro-pNA 62.5/125/250 μM, pH 7.6, 30°C, competitive fit
pKi: −log10 of the molar value.
OUTCOME_MEASURE: pKi

// worked examples, pKi included
INSERT INTO assay_data (sample_smiles, result) VALUES
  ('O=C(O)C[C@H](NC(=O)OCc1ccccc1)C(=O)N1CCC[C@H]1C(=O)c1nc2ccccc2s1', 7.92),
  ('O=C(N[C@@H](Cc1ccccc1)C(=O)N1CCC[C@H]1C(=O)c1nc2ccccc2s1)OCc1ccccc1', 8.34),
  ('O=C(N[C@@H](Cc1ccccc1)C(=O)N1CCC[C@H]1C(=O)c1nccs1)OCc1ccccc1', 9.96),
  ('NCCCC[C@H](NC(=O)OCc1ccccc1)C(=O)N1CCC[C@H]1C(=O)c1nc2ccccc2s1', 8.39);

(P) C[C@H](NC(=O)OCc1ccccc1)C(=O)N1CCC[C@H]1C(=O)c1nc2ccccc2s1
(Q) N=C(N)NCCC[C@H](NC(=O)OCc1ccccc1)C(=O)N1CCC[C@H]1C(=O)c1nc2ccccc2s1
Request: Between P and Q , which one has the lower reported pKi value? Respond using the label that marks the chosen record.
Response: Q
(Q: 8.49, P: 10.42)

----------
Entries annotated with measured Ki
# MEASURED_TARGET: human recombinant prolyl endopeptidase (PREP) (Homo sapiens)
# EXPERIMENT_NOTES: PREP enzymatic activity assay (Z-Gly-Pro-pNA, photometric)
# MEASUREMENT_CONDITIONS: recombinant PREP, Z-Gly-Pro-pNA 62.5/125/250 μM, pH 7.6, 30°C, competitive fit

Request: Given the entry O=C(NC(Cc1ccccc1)C(=O)NC(Cc1ccccc1)C(=O)c1nc2ccccc2s1)OCc1ccccc1 (stereo not drawn) , report its measured Ki.
Response: > 10 µM

Request: Item: C[C@H](NC(=O)[C@H](Cc1ccccc1)NC(=O)OCc1ccccc1)C(=O)c1nc2ccccc2s1
Response: > 10 µM

Request: Item: CC(C)C[C@H](NC(=O)[C@H](Cc1ccccc1)NC(=O)OCc1ccccc1)C(=O)c1nc2ccccc2s1
Response: > 1 µM
